- EXPERIMENTAL DETAILS: Acute intravenous toxicity (LD50) and therapeutic index, Table II
- EXPERIMENTAL CONDITIONS: in vivo; from LD50 and ED50, iv.
Can you tell me selectivity ratio for the items I'm about to list?
Numbers only.

- COMPOUND: "CN(C)CCO/N=C1\\CCCCCC1Cc1ccccc1 (stereo not shown) [compound D]"
  MEASURED ATTRIBUTE: "selectivity ratio"
  MEASURED NUMBER: 76.9

Go through the list and state selectivity ratio for each entry.
1. CC(C)N(CCCO/N=C1\CCCC\C1=C/c1ccccc1)C(C)C [compound G]
2. CC(Cc1ccccc1)NCCC(c1ccccc1)c1ccccc1 (stereo not shown) [Prenylamine, reference compound]
3. CC(C)N(CCCO/N=C1\CCCC\C1=C/c1ccc(Cl)cc1)C(C)C [compound F]

32.9
1.77
120
